Assay: NCI Yeast Anticancer Drug Screen. Data for the rad50 strain (AID 155);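 further: 0% = growth of vehicle-only cultures of the same strain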
Details: S. cerevisiae rad50 strain growth inhibition; at 50.0 µM; stronger effect = higher value
Description: Growth inhibition of yeast strains with defined genetic alterations is measured as a screen for potential anti-cancer activity. Selected strains with alterations in DNA damage repair or cell cycle control were exposed to compounds and growth inhibition was measured relative to vehicle treated controls. The strain used in this assay is rad50
This is part of a sample that, as a whole, favours compounds with a hit. Of some 79,000 tested, about 15% had one in any assay.
READOUT_LABEL: growth inhibition (%)
Form entry: value (%) — number only.

Just so you know, measured growth inhibition for N#CC1(Nc2ccc3c4c(cccc24)CC3)CCCCC1 came out at 0.8

Just so you know, measured growth inhibition for C=CC(O)CCC (stereo not drawn) came out at -8.4

Just so you know, measured growth inhibition for COC(=O)c1cccnc1 came out at 6.65

Just so you know, measured growth inhibition for O=C1OC(c2ccc(F)cc2)CC1CN1CCOCC1 (stereo not drawn) came out at 0.45

Just so you know, measured growth inhibition for COc1cccc(COC(=O)Nc2ccccc2)c1OC came out at 29.9

Just so you know, measured growth inhibition for CC1NC(=O)NC1CCCCCC(=O)O (stereo not drawn) came out at 8.3

Just so you know, measured growth inhibition for OC1OC(COC(c2ccccc2)(c2ccccc2)c2ccccc2)C(O)C(O)C1O (stereo not drawn) came out at -11.9

Just so you know, measured growth inhibition for CC1=CC(=O)c2ccccc2C1=O came out at 14.4

Just so you know, measured growth inhibition for CC(=O)OC(C(=O)O)c1ccccc1 (stereo not drawn) came out at 15.9

Just so you know, measured growth inhibition for O=C(c1ccc(O)cc1)c1ccc(O)cc1 came out at 30.4

Just so you know, measured growth inhibition for COc1ccc2c(c1)CCc1c-2n[nH]c1-c1[nH]nc2c1CCc1cc(OC)ccc1-2 came out at 0.5

Just so you know, measured growth inhibition for CCN(CC)CCNc1ccc(CO)c2sc3ccccc3c(=O)c12 came out at -16.1

Just so you know, measured growth inhibition for CCOc1ccc2[nH]c(=S)sc2c1 came out at 35.5

* * *

I'd be grateful if you could share measured growth inhibition for these entries.
Assay: NCI Yeast Anticancer Drug Screen. Data for the cln2 rad14 strain (AID 165);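 further: 0% = growth equal to vehicle treated cultures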
Settings: S. cerevisiae cln2 rad14 strain, at 50.0 µM, stronger effect = higher value
Compounds without any hit were thinned out: in the full panel of roughly 79,000, 15% have a hit.
Form entry: value (%) — number only.

Just so you know, measured growth inhibition for CC(=O)OC(C(=O)O)c1ccccc1 (stereo not drawn) came out at 13.8

Just so you know, measured growth inhibition for CC(=O)/C(Cc1ccccc1)=N/O came out at -4

Just so you know, measured growth inhibition for Cc1ccc(C(=O)c2ccccc2)c(C)c1 came out at -10.4

Just so you know, measured growth inhibition for OC(c1ccccn1)C(O)c1ccccn1 (stereo not drawn) came out at -9

Just so you know, measured growth inhibition for S=c1nn[nH]c2ccccc12 came out at 8.1

Just so you know, measured growth inhibition for C/C(=C\c1cc(Cl)ccc1OCC(=O)O)[N+](=O)[O-] came out at 26.9

Just so you know, measured growth inhibition for O=C1OC(=O)C2C1C1(Cl)C(Cl)=C(Cl)C2(Cl)C2C(=O)OC(=O)C21 (stereo not drawn) came out at -9.45

Just so you know, measured growth inhibition for CC(C)=C(NC(=O)c1ccccc1)C(=O)O came out at 22

Just so you know, measured growth inhibition for CC1(O)OC(COc2ccc(Cl)cc2)COC1O (stereo not drawn) came out at 8.55

Just so you know, measured growth inhibition for CCOC(=O)c1ccc(NC(=S)P(=O)(c2ccccc2)c2ccccc2)cc1 came out at 30.7

Just so you know, measured growth inhibition for CCCC[P+](c1ccccc1)(c1ccccc1)c1ccccc1 came out at 37.2

Just so you know, measured growth inhibition for N#Cc1c(N)sc(=S)c2c1CCCC2 came out at 1.8

Just so you know, measured growth inhibition for Cn1cnc2nc(Cl)nc(Cl)c21 came out at -0.05
